# ASSAY_TARGET: Rat FAAH-1 (Rattus norvegicus, UniProt P97612)
# Sequence (P97612 whole entry): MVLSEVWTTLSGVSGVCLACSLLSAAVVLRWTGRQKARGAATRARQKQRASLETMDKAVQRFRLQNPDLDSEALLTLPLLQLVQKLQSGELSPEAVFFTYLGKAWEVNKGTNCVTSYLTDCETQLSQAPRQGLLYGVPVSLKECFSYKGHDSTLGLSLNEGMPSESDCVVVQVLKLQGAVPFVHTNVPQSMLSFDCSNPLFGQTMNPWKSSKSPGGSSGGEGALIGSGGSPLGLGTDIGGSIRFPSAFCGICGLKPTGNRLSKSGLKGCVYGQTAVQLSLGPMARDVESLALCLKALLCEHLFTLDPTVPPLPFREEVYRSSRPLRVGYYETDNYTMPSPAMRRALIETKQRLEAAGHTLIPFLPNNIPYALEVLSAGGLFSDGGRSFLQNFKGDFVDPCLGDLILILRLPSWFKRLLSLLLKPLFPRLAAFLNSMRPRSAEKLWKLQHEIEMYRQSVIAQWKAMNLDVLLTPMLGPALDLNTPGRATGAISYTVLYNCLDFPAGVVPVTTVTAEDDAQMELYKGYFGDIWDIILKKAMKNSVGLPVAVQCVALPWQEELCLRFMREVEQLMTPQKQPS
# ASSAY_OVERVIEW: Assay Method 2: rat FAAH-1 assay, 3H-anandamide hydrolysis in homogenate of SK-N-MC cells transfected with rat FAAH
pIC50: −log10 of the molar value. Where a name gives a salt, the structure may show the parent alone.
READOUT: pIC50

A. O=[N+]([O-])c1ccc(-c2cc(NCC(O)c3ccccc3)ncn2)cc1 (stereo not shown) [Example 5, trifluoroacetic acid salt]
B. COc1ccc(-c2cc(NC[C@H](O)c3ccccc3)ncn2)cc1F [Example 71]
C. O=S(=O)(c1ccc(-c2cc(NC[C@H](O)c3ccccc3)ncn2)cc1)N1CCCC1 [Example 80]
D. N#Cc1cc(-c2cc(NC[C@H](O)c3ccccc3)ncn2)ccc1F [Example 89, trifluoroacetic acid salt]
Q. Could you please sort these 4 entries by pIC50 from high to low? Labels, ranked as asked.
A. B, A, C, D
